# Procedure details: SEC-HPLC % monomer
# Format: physicochemical
# Test settings: optimized antibodies
# Experimental: A TSKgel SuperSW mAb HTP column (22855) was used for fast SEC analysis of mammalian produced mAbs at 0.4 mL/min with a cycle time of 6 min/run. 200 mM Sodium Phosphate and 250 mM Sodium Chloride was used as the mobile phase.
Could you please report measured SEC-HPLC, % monomer for the items listed next?
Give the number; % is assumed, so skip it.

Ask: Item under review: ADI-71728: anti-IL18-BP antibody, sequences in FIG. 2O; 66670 lineage (antibody, V domains shown) VH: QVQLVQSGAEVKKPGSSVKVSCKASGGTFSEYPISWVRQAPGQGLEWMGGIIPYSGTAVYAQKFQGRVTITADESTSTAYMELSSLRSEDTAVYYCARGRHGHETWGQGTLVTVSS VL: DIQMTQSPSSVSASVGDRVTITCRASQGISSWLAWYQQKPGKAPKLLIYAASSLQSGVPSRFSGSGSGTDFTLTISSLQPEDFATYYCQQVYSIPWTFGGGTKVEIK . Reported SEC-HPLC, % monomer?
Reply: 95.0

Ask: Item under review: ADI-71741: anti-IL18-BP antibody, sequences in FIG. 2P (antibody, V domains shown) VH: QLQLQESGPGLVKPSETLSLTCTVSGGSISSSDYPWGWIRQPPGKGLEWIGSIYYSGSTYYNPSLKSRVTISVDTSKNQFSLKLSSVTAADTAVYYCARGPYRQVFDYWGQGTLVTVSS VL: DIQMTQSPSSVSASVGDRVTITCRASQGISSWLAWYQQKPGKAPKLLIYAASSLQSGVPSRFSGSGSGTDFTLTISSLQPEDFATYYCQQGNSFPYTFGGGTKVEIK . Reported SEC-HPLC, % monomer?
Reply: 99.4
